- Test system: p38-delta
- Construct: gene MAPK13
- cond: Compound Concentration (nM):1000;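 note: KINOMEscan scanMAX binding as percent activity remaining versus control; lower means stronger binding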
Percent Control by entry:
Write the value in % as a bare number.

// below: answered compounds
compound | units-symbol | number
COc1cc2ncnc(Nc3ccc4c(cnn4Cc4ccccc4)c3)c2cc1OC.Cl [GW282449A] | % | 100
COc1ccc2cc(-c3c(-c4ccncc4)nc(-c4ccc(S(C)(=O)=O)cc4C)n3C)ccc2c1 | % | 83
CCS(=O)(=O)c1ccc(OC)c(Nc2ncc(-c3cccc(OC)c3)o2)c1 [GW580509X] | % | 100
Cl.O=C(Nc1ccc(Oc2ccc3[nH]c(NC(=O)c4ccco4)nc3c2)cc1)Nc1cc(C(F)(F)F)ccc1F [GW683134A] | % | 100
Nc1ncnc2occ(-c3ccc(NC(=O)Nc4cc(C(F)(F)F)ccc4F)cc3)c12 [GW770249X] | % | 4.8
COc1cccc(-n2ncc3c(N/N=C/c4ccncc4)ncnc32)c1 [GW784752X] | % | 100

// recorded Percent Control for Cl.c1ccc(Cc2nc3ccc(Nc4ncnc5ccccc45)cc3[nH]2)cc1 [GR269666A] : 100

Reported Percent Control ( CC1=C(C(=O)Nc2ccc3[nH]ncc3c2)C(c2ccc3ccccc3c2)CC(=O)N1 (stereo not shown) [GSK270822A] ) = 94

What the record says about CC(C)COC(=O)c1ccc2c(c1)/C(=C/Nc1ccc(S(N)(=O)=O)cc1)C(=O)N2 [GW416981X] : Percent Control is 100

// field: Percent Control; key: COc1ccc2[nH]c3c4[nH]c5ccc(OC)cc5c4c4c(c3c2c1)C(=O)NC4=O [GW296115X] ; value = 86

Lab note: measured Percent Control of C[C@@H](Oc1cc(-n2cnc3ccc(OC4CCN(C)CC4)cc32)sc1C(N)=O)c1ccccc1Cl [GSK579289A] was 100

Short answer for COc1cccc(-c2c[nH]c3c(N/N=C/c4ccncc4)ncnc23)c1 [GW814408X] : Percent Control was 100

The reported value for Cl.O=C(Nc1ccc(Oc2ccc3[nH]c(NC(=O)c4ccccc4)nc3c2)cc1)Nc1cc(C(F)(F)F)ccc1F [GW709042A] in terms of Percent Control is 100

# Percent Control of COc1ccc(COc2ccc(Cc3cnc(N)nc3N)cc2OC)cc1 [GW632580X] = 85

Sample CCn1c(-c2nonc2N)nc2c(C#CC(C)(C)O)nc(OCCNC)cc21.Cl ; Percent Control observed: 100

Short answer for COc1cc(N2CCN(C(C)C)CC2)ccc1Nc1nc(Nc2ccc(F)cc2C(=O)NC[C@@H](O)CO)c2cc[nH]c2n1 [GSK1392956A] : Percent Control was 100

Entry Cl.O=C(O[C@H]1CN[C@H](C#Cc2cc3ncnc(Nc4ccc5c(cnn5Cc5ccccc5)c4)c3s2)C1)N1CCOCC1 [GSK200398A] — recorded Percent Control = 100

Please fill in: Percent Control reported for CN(C)CCNC(=O)Nc1ccc(N(C)c2ccnc(Nc3ccc(CS(C)(=O)=O)cc3)n2)cc1.Cl [GW830900A] = 99

###

- Test system: ZAK
- cond: Compound Concentration (nM):1000
Entries annotated with measured Percent Control
Report as a plain number; the unit % is understood.

Use these answered entries as a reference point.
compound | units-symbol | number
NS(=O)(=O)c1ccc(N/N=C2\C(=O)Nc3ccc(Cl)cc32)cc1 [GW280670X] | % | 100
Cl.O=C(Nc1ccc(Oc2ccc3[nH]c(NC(=O)c4ccccc4)nc3c2)cc1)Nc1cc(C(F)(F)F)ccc1F [GW709042A] | % | 6.9
COc1ccc2cc(-c3c(-c4ccncc4)nc(-c4ccc(S(C)(=O)=O)cc4C)n3C)ccc2c1 | % | 89

Query CN(C)c1cc2c(Nc3ccc4c(cnn4Cc4ccccc4)c3)ncnc2cn1 [GW282974X] yields Percent Control of 90

# Percent Control (compound: CCn1c(-c2nonc2N)nc2c(C#CC(C)(C)O)nc(OCCNC)cc21.Cl ) is 100

Looking up O=C(Nc1n[nH]c2nc(-c3ccc(O)cc3)c(Br)cc12)C1CC1 , I see its Percent Control listed as 100

Reported Percent Control of COc1ccc2c(-c3ccnc(Nc4cccc(OC(F)(F)F)c4)n3)cnn2n1 [GW810372X] : 69

For reference, reported Percent Control for Cl.O=S1CCN(Cc2ccc(-c3ccc4ncnc(Nc5ccc(OCc6ccccc6)c(F)c5)c4c3)o2)CC1 [GW576924A] stands at 100

All figures here come from paper PMC7826789.
